# Tested on: mature cyclic rats
# Test summary: Ovulation inhibition in rat after oral administration (in vivo progestagenic activity)
# Run parameters: 96 h, minimal active dose: average number of ova reduced by 60% relative to placebo, oral administration for 1 complete cycle (4 days), read-out: MAD
Reported metric: minimal effective dose

| Compound | minimal effective dose |
| --- | --- |
| C=Cc1cccc2c1N1CCC[C@H](NC(=O)C(F)(F)F)[C@H]1c1ccccc1O2 [eutomer of example 54 of WO03/ 084963, reference compound] | > 4 mg/kg |
| N#Cc1c(F)cc2c(c1Cl)N1CCC[C@H](NC(=O)C(F)(F)F)[C@H]1c1ccc(F)cc1O2 (stereo in doubt) | ≤ 0.025 mg/kg |
| Cc1cc(F)cc2c1N1CCC[C@H](NC(=O)C(F)(F)F)[C@H]1c1ccccc1O2 [example 60 of WO03/ 084963, reference compound] | ~1 mg/kg |

Exam item: # lookup: minimal effective dose of N#Cc1cc2c(cc1F)Oc1cccc(F)c1[C@@H]1[C@@H](NC(=O)C(F)(F)F)CCCN21 (stereo in doubt)
Marked response: 0.01 mg/kg

Exam item: # lookup: minimal effective dose of CC(=O)c1cc(F)cc2c1N1CCC[C@H](NC(=O)C(F)(F)F)[C@H]1c1ccccc1O2 [example 57 of WO03/ 084963, reference compound]
Marked response: > 4 mg/kg

Exam item: # lookup: minimal effective dose of N#Cc1cc2c(cc1F)Oc1ccccc1[C@@H]1[C@@H](NC(=O)C(F)(F)F)CCCN21 (stereo in doubt)
Marked response: 0.014 mg/kg

Exam item: # lookup: minimal effective dose of N#Cc1c(F)cc2c(c1Cl)N1CCC[C@H](NC(=O)C(F)(F)F)[C@H]1c1ccccc1O2 (stereo in doubt)
Marked response: 0.08 mg/kg

Exam item: # lookup: minimal effective dose of N#Cc1c(F)cc2c(c1Cl)N1CCC[C@H](NC(=O)C(F)(F)F)[C@H]1c1c(F)cccc1O2 (stereo in doubt)
Marked response: < 0.02 mg/kg

Exam item: # lookup: minimal effective dose of N#Cc1ccc2c(c1)N1CCC[C@H](NC(=O)C(F)(F)F)[C@H]1c1ccccc1O2 [eutomer of example 63 of WO03/ 084963, reference compound]
Marked response: ~4 mg/kg

Exam item: # lookup: minimal effective dose of N#Cc1cc(F)cc2c1N1CCC[C@H](NC(=O)C(F)(F)F)[C@H]1c1ccccc1O2 [eutomer of example 58 of WO03/ 084963, reference compound]
Marked response: 0.38 mg/kg

Exam item: # lookup: minimal effective dose of CC(=O)c1cccc2c1N1CCC[C@H](NC(=O)C(F)(F)F)[C@H]1c1ccccc1O2 [eutomer of example 52 of WO03/ 084963, reference compound]
Marked response: > 4 mg/kg

Exam item: # lookup: minimal effective dose of CC(=O)N[C@H]1CCCN2c3c(ccc(Cl)c3Cl)Oc3ccccc3[C@H]12 [example 47 of WO03/ 084963, reference compound]
Marked response: > 4 mg/kg

----------
Below: a set of entries, each annotated with reported minimal effective dose.
# Tested on: mature cyclic rats
# Test summary: Ovulation inhibition in rat after oral administration (in vivo progestagenic activity)
# Run parameters: 96 h, minimal active dose: average number of ova reduced by 60% relative to placebo, oral administration for 1 complete cycle (4 days), read-out: MAD
Answer with a number only, understood to be in mg/kg.

| Compound | minimal effective dose / mg/kg |
| --- | --- |
| N#Cc1c(F)cc2c(c1Cl)N1CCC[C@H](NC(=O)C(F)(F)F)[C@H]1c1cccc(F)c1O2 (stereo in doubt) [Example 7] | 0.025 |

We now examine a further compound.
Exam item: # lookup: minimal effective dose of N#Cc1c(F)cc2c(c1C#N)N1CCC[C@H](NC(=O)C(F)(F)F)[C@H]1c1ccccc1O2 (stereo in doubt) [Example 4]
Marked response: 0.02
